Tested on: SK-MEL-5 melanoma
Test: NCI-60 one-dose screen, 48 h
Conditions: 10 µM unless noted
Procedure: Growth inhibition of the SK-MEL-5 human tumor cell line is measured as a screen for anti-cancer activity. Cells are grown in 96 well plates and exposed to the test compound for 48 hours. Compounds are tested at a single concentration, which is 10^-5 M for most compounds. The reported endpoint is percent growth (GI% or GIPRCNT), where numbers from 0 - 100% represent growth inhibition, and numbers from -100% - 0 represent cell death. For example, a value of 40 represents 60% growth inhibition. […]
Compounds without any hit were thinned out: in the full panel of roughly 83,000, 20% have a hit. Active and inactive are the calls of the source. Rule for the calls: active = growth percent below 10; inactive = the rest.
Possible outcomes: active, inactive

molecule	assigned class
CC(=O)ONc1ccc([N+](=O)[O-])c(C(F)(F)F)c1	inactive
O=C1OCCC1Br (configuration not stated)	inactive
COc1ccc(C(=O)c2cc(OC)c(OC)c(OC)c2)cc1OC(C)=O	active
CC[CH2][Sn]([Cl])([Cl])[CH2]CC	inactive
O=C1CC2(CC3(Cl)C(Cl)=C(Cl)C2(Cl)C3(Cl)Cl)C(=O)O1 (configuration not stated)	inactive
Clc1ccc2nnnn2n1	inactive
COc1ccc(C(O)(C(=O)O)c2ccc(OC)cc2)cc1	inactive

----------
system: SF-539 CNS; experiment: NCI-60 one-dose screen, 48 h; settings: 10 µM unless noted
This is part of a sample that, as a whole, favours compounds with a hit. Of some 83,000 tested, about 20% had one in any assay. Activity calls are given as the source filed them. How the source made its calls: active means growth percent below 10; inactive means the rest.
Outcomes: active, inactive

compound	assigned class
Cn1cc(C2=C(c3cn(C4CCN(Cc5ccccn5)CC4)c4ccccc34)C(=O)NC2=O)c2ccccc21	inactive
O=C(N/N=C\c1ccc(N(CCCl)CCCl)cc1Cl)c1cccnc1	inactive
O=[N+]([O-])CC(O)C(Cl)(Cl)Cl (stereo not given)	inactive
C[Se]C(=O)c1ccccc1OC(C)=O	inactive
CC(CO)NC1CCCCC1 (stereo not given)	inactive
O=C1CN=C(c2ccc(Cl)cc2)c2sccc2N1	inactive
Cc1ccc(S(=O)(=O)F)cc1C(=O)O	inactive
COc1cc(/C=C\c2cc(OC)c(OC)c(OC)c2)cc(NS(=O)(=O)c2cccc(Cl)c2)c1OC	active
c1cnc2[nH]cc(-c3csc(-c4cn(CCCCN5CCCCC5)c5ccccc45)n3)c2c1	inactive
CC[C@H](C)[C@H](NC(=O)[C@H]1CCCCN1C)C(=O)N(C)[C@H](CCc1nc(C(=O)N[C@@H](Cc2ccccc2)C[C@H](C)C(=O)OC)cs1)C(C)C	active

----------
system: NCI/ADR-RES ovarian; experiment: NCI-60 one-dose screen, 48 h; details: 10 µM unless noted
The panel holds about 83,000 compounds, 20% with a hit somewhere; the sample as a whole holds those more often. The source made the active and inactive calls. The calls were made as follows: active = growth percent below 10; inactive = the rest.
Outcomes: active, inactive

molecule	assigned class
NC(=O)C(Br)c1ccccc1 (stereo unspecified)	inactive
C/C=C(\C)C(=O)O[C@@H]1C(O)[C@H]2OC(COC(=O)CCC(=O)CCCCCC[C@H](CCCCC)O[C@@H]3OC(C)[C@H](OC(C)=O)C(O)[C@H]3O2)[C@H]1OC(=O)/C=C/c1ccccc1 (stereo partly specified)	inactive
O=C1C2CC=CCC2C(=O)N1SC(Cl)(Cl)Cl (stereo unspecified)	inactive
CCCCCCCCCCCCCCCCCC1OC[C@H](COC(=O)O[C@@H](C(=O)O[C@H]2C[C@@]3(O)[C@@H](OC(=O)c4ccccc4)[C@@H]4[C@]5(OC(C)=O)CO[C@@H]5C[C@H](O)[C@@]4(C)C(=O)[C@H](OC(C)=O)C(=C2C)C3(C)C)[C@@H](NC(=O)c2ccccc2)c2ccccc2)O1 (stereo partly specified)	inactive
Clc1ccc(CO/N=C(\Cn2ccnc2)c2ccc(Cl)cc2Cl)c(Cl)c1	active
CNC(=O)Oc1cccc(C(F)(F)F)c1	inactive
O=[N+]([O-])c1ccc([Se]C2CCCCC2Cl)c([N+](=O)[O-])c1 (stereo unspecified)	inactive
O=C1NC(=O)C(=Cc2cn(C(=O)c3ccccc3)c3ccccc23)C(=O)N1	inactive
CC1(C)N=C(N)N=C(N)N1c1ccc(CCCCc2ccc(Cl)c(S(=O)(=O)F)c2)c(Cl)c1	inactive
N#C[S-].[Au+].c1ccc(CN2[CH-]N(Cc3ccccc3)C(c3ccccc3)=C2c2ccccc2)cc1	inactive
c1ccc(Nc2nc(-c3ccccc3)c[se]2)cc1	inactive
COc1cc(C=Nc2cc(Cl)cc(Cl)c2)ccc1N(CCCl)CCCl	inactive
CCCCCCCCCCCCCCCCCC1OC[C@@H](COC(=O)O[C@@H](C(=O)O[C@H]2C[C@@]3(O)[C@@H](OC(=O)c4ccccc4)[C@@H]4[C@]5(OC(C)=O)CO[C@@H]5C[C@H](O)[C@@]4(C)C(=O)[C@H](OC(C)=O)C(=C2C)C3(C)C)[C@@H](NC(=O)c2ccccc2)c2ccccc2)O1 (stereo partly specified)	inactive
[Au+].[N-]=C=O.c1ccc(CN2[CH-]N(Cc3ccccc3)C(c3ccccc3)=C2c2ccccc2)cc1	inactive
COc1ccc2c(c1)c(-c1nc(-c3cn(C)c4ncccc34)cs1)cn2CCN1CCOCC1	inactive
CC1(C)C(C(=O)c2cn(CCCCF)c3ccccc23)C1(C)C	inactive

----------
tested on: HCC-2998 colon; test: NCI-60 one-dose screen, 48 h; details: 10 µM unless noted
About 83,000 compounds went through this panel and 20% of them were active in at least one assay; those are over-represented in the sample as a whole. Activity calls are given as the source filed them. Rule for the calls: active = growth percent below 10; inactive = the rest.
Labels: active, inactive

molecule	target system	assigned class
COc1cc(/C=N/C2=C(C#N)C(c3ccco3)c3c(c4cc(C)ccc4oc3=O)O2)cc(OC)c1OC (stereo unspecified)	HCC-2998 colon	inactive
COC(=O)[C@@]1(C)CC[C@]2(C)CC[C@]3(C)C4=CC=C5C(=CC(=O)C(O)=C5C)[C@]4(C)CC[C@@]3(C)[C@@H]2C1	HCC-2998 colon	active
CC(=O)c1ccc(C(=O)NCC2CCC3(CC2)OOC2(CCCCC2)OO3)cc1	HCC-2998 colon	inactive
CCCC(=O)O[C@@H]1C[C@H]2C[C@@H](O[C@@H]3O[C@@H](C)[C@@H](O)[C@@H](O)[C@H]3OC)C[C@@H](C[C@@H](C)/C=C/C=C\C[C@@H]3O[C@@H](C[C@@H]3C)[C@@H](O)C[C@H]3C[C@@]1(O)C(=O)O3)O2	HCC-2998 colon	inactive
C[C@]12CCc3sc(-c4cccc(F)c4)nc3C1=CC[C@@H]1[C@@H]2CC[C@]2(C)C(=O)CC[C@@H]12	HCC-2998 colon	inactive
CC(=O)OC1C(OC/C2=C/C3[C@@H](C(C)C)CC=C(C)[C@@H]3CC(OC(=O)/C=C/c3cn(C)cn3)[C@]3(C)C=C[C@@]2(O)O3)OCC(O)C1O (stereo partly specified)	HCC-2998 colon	active
Cc1cc(N(CCCl)CCCl)ccc1C=Nc1cccnc1	HCC-2998 colon	inactive
CC12CCC=CC1CCC1C2CCC2(C)C(c3ccc(=O)oc3)CCC12O (stereo unspecified)	HCC-2998 colon	active
O=C1C2C(C(=O)[N]1[Hg][c]1ccccc1)C1(Cl)C(Cl)=C(Cl)C2(Cl)C1(Cl)Cl (stereo unspecified)	HCC-2998 colon	inactive
Clc1ccc(COC(Cn2ccnc2)c2ccc(Cl)cc2Cl)cc1 (stereo unspecified)	HCC-2998 colon	inactive
ClCCN(CCCl)c1ccc(/C=N\N=C\c2ccc(N(CCCl)CCCl)cc2)cc1	HCC-2998 colon	inactive
C[C@]12CCc3sc(NCCc4ccccc4)nc3C1=CC[C@@H]1[C@@H]2CC[C@]2(C)C(=O)CC[C@@H]12	HCC-2998 colon	inactive
Fc1ccc2c(c1)c(-c1nc(-c3c[nH]c4ncccc34)cs1)cn2CCN1CCOCC1	HCC-2998 colon	inactive
COC(=O)[C@@H](C)C[C@H](Cc1ccccc1)NC(=O)c1nc([C@@H](C[C@H](C(C)C)N(C)C(=O)[C@@H](NC(=O)[C@H]2CCCCN2C)C(C)C)OC(C)=O)sc1C	HCC-2998 colon	inactive
CCCCCCCCCCCCNC(c1ccccc1)C(O)c1ccccc1 (stereo unspecified)	HCC-2998 colon	inactive
O=C(CC1(O)C(=O)N(Cc2ccccc2)c2ccc(F)cc21)c1ccc(C(=O)NCC2CCC3(CC2)OOC2(CCCCC2)OO3)cc1 (stereo unspecified)	HCC-2998 colon	inactive

----------
system: NCI-H226 lung; test: NCI-60 one-dose screen, 48 h (100 = growth as untreated, 0 = no growth, -100 = all killed); conditions: 10 µM unless noted
The panel holds about 83,000 compounds, 20% with a hit somewhere; the sample as a whole holds those more often.

molecule	readout unit	growth
COC(=O)[C@@]1(C)CC[C@]2(C)CC[C@]3(C)C4=CC=C5C(=CC(=O)C(O)=C5C)[C@]4(C)CC[C@@]3(C)[C@@H]2C1	%	-59.1
O=C1C(Cl)=C(N2CCOCC2)C(=O)c2ccccc21	%	104
O=C(CC1(O)C(=O)Nc2ccc(Cl)cc21)c1ccc(C(=O)NCC2CCC3(CC2)OOC2(CCCCC2)OO3)cc1 (configuration not stated)	%	53.3
CC(=O)OC1CCC2(C)C(CCC3C2CC(=O)C2(C)C3CC(Sc3ccc(N(CCCl)CCCl)cc3)C2C(C)=O)C1 (configuration not stated)	%	83.7
CC[C@H](C)[C@H](NC(=O)[C@H]1CCCCN1C)C(=O)N(C)[C@H](C[C@@H](OC(C)=O)c1nc(C(=O)N[C@@H](Cc2ccccc2)C[C@H](C)C(=O)OC)cs1)C(C)C	%	12.6
O=C(O)C1C(C(=O)O)C2(Cl)C(Cl)=C(Cl)C1(Cl)C2(Cl)Cl.[Hg] (configuration not stated)	%	106
CCOC(=O)[C@@H](C)C[C@H](Cc1ccccc1)NC(=O)c1csc([C@@H](C[C@H](C(C)C)N(C)C(=O)[C@H](CCC(C)C)NC(=O)[C@H]2CCCCN2C)OC(C)=O)n1	%	27.7
